Molecular target: BCDE (Rattus norvegicus, UniProt P07896)
Construct: gene Ehhadh; truncated RnMFE1 from Ala260 (ASGQ) to the C-terminus, without domain A (ECH part); N-terminal His6 tag, E. coli BL21(DE3) pLysS
Sequence (P07896 260-722): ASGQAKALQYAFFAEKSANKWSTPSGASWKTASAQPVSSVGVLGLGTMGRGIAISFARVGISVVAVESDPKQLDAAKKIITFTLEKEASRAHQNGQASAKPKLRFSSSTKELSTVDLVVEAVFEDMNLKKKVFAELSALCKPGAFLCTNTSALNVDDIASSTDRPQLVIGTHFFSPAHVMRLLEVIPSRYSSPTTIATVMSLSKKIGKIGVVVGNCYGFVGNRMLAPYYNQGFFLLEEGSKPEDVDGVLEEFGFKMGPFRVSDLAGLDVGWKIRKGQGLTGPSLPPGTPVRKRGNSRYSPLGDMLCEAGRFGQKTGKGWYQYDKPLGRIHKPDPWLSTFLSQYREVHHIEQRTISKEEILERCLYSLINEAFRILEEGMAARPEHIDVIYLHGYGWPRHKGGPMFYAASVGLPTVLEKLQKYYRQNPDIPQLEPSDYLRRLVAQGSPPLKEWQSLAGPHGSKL
Assay: stopped-flow tryptophan fluorescence, koff/kon
Type: binding
Description: stopped-flow tryptophan fluorescence, koff/kon on BCDE
measurement-name: Kd (µM)
Numbers only, in µM.

Query: So what Kd did NC(=O)c1ccc[n+]([C@@H]2O[C@H](COP(=O)(O)OP(=O)(O)OC[C@H]3O[C@@H](n4cnc5c(N)ncnc54)[C@H](O)[C@@H]3O)[C@@H](O)[C@H]2O)c1 get with BCDE (Rattus norvegicus, UniProt P07896)?
Response: 7.5

The reported numbers originate from paper PMC10988713.
